test: binders from COS7 lysate, DM2A8 probe, primary screen, torsin A project, cell lysate, small-molecule microarray, fluorescence 635/667 (AID 1065); settings: higher = more signal, COS7 lysate expressing mutant human TOR1A
Decision: composite z-score compared against 0.2; not below it gives Fulfilled, below it gives Not fulfilled.

{"columns": ["MOLECULE", "CAT"],
 "data": [
  ["CC1CC/C=C\\[C@H]2OC34C=CCN(C(C)(C)C)C(=O)[C@H]3N(CCCCCCO)C(=O)[C@@H]4C2C(=O)O1 (some centres not stated)", "Not fulfilled"],
  ["C[C@@]1([C@@H](NC(=O)c2ccccc2)c2ccc(-c3ccccc3)cc2)C[C@H]1C1CCCCC1", "Not fulfilled"],
  ["COc1ccc(C(=O)Nc2ccc(CN3C(=O)[C@@]4(O[C@@H](CCn5cc([C@H](O)c6ccccc6)nn5)[C@H]([Si](C)(C)c5ccc(OC)cc5)[C@H]4C)c4ccccc43)cc2)cc1", "Fulfilled"],
  ["COC(=O)[C@@]1(Cc2ccc(OC)cc2)[C@H]2c3cc(C(=O)N(C)C)n(Cc4cccc5ccccc45)c3C[C@H]2CN1C(=O)c1ccccc1", "Fulfilled"],
  ["Cc1ccc(S[C@]2(C(=O)NCCN3CCOCC3)CC(=O)N(Cc3ccccc3)[C@@H]2c2ccc(CO)cc2I)cc1", "Not fulfilled"],
  ["CC(=O)N1Cc2ccccc2C[C@@]2(COC(c3ccc(OCCCO)cc3)=N2)C1=O", "Fulfilled"],
  ["COCCOC(=O)N1C(=O)[C@@]2(c3cc(C#CCCO)ccc31)[C@H](C(=O)N1CCN(c3ncccn3)CC1)[C@H]1C(=O)O[C@H](c3ccccc3)[C@H](c3ccccc3)N1[C@@H]2c1ccccc1OCCO", "Fulfilled"]
]}

---

target: Torsin-1A (Homo sapiens) (UniProt O14656); assay: torsin A binders from cell lysate, primary screen, small-molecule microarray, wild-type, 635/667 nm (AID 1149); conditions: COS7 hTOR1A-WT lysate, 635 nm fluorescence, higher = more signal
Sequence (O14656 whole entry, looked up): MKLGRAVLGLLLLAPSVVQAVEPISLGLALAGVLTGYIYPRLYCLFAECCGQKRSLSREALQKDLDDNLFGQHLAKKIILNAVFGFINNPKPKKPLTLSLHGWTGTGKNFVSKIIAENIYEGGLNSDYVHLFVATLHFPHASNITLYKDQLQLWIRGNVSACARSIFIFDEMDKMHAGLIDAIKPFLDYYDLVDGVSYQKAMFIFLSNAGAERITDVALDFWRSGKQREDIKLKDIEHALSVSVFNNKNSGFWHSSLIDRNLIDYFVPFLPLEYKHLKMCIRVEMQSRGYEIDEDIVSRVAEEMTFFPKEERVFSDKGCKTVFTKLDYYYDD
# reported composite z-score; entries follow

{"columns": ["COMPOUND", "EXPERIMENTAL_TARGET", "composite z-score"],
 "data": [
  ["O=C1C2C=CC(C(O)C3CCCCC3)N(Nc3ccc([N+](=O)[O-])cc3)C2C(=O)N1c1ccccc1 (configuration not stated)", "Torsin-1A (Homo sapiens) (UniProt O14656)", -0.465],
  ["Cc1ccc(S[C@]2(C(=O)NC3CC3)CC(=O)N(C3Cc4ccccc4C3)[C@@H]2c2ccc(CO)cc2)cc1", "Torsin-1A (Homo sapiens) (UniProt O14656)", -0.382],
  ["O=C1c2ccccc2[C@](Cc2ccccc2I)(C(=O)NC2CC2)[C@H](c2ccc(CO)cc2)N1C1CCCCC1", "Torsin-1A (Homo sapiens) (UniProt O14656)", 0.414],
  ["CC(=O)NCCCC[C@@H]1NC(=O)[C@@H]2C[C@H](C(=O)NCCCCN(C)C)[C@H](c3cccc(OCCO)c3)N2C1=O", "Torsin-1A (Homo sapiens) (UniProt O14656)", -1.28],
  ["COCCOC(=O)N1C(=O)[C@@]2(c3cc(C#CC4(O)CCCCCC4)ccc31)[C@H](c1ccc(O)cc1)N1[C@H](c3ccccc3)[C@H](c3ccccc3)OC(=O)[C@H]1[C@@H]2C(=O)Nc1nc2ccccc2s1", "Torsin-1A (Homo sapiens) (UniProt O14656)", 0.549],
  ["CCCC[C@@H]1C[C@H]1[C@@H](NC(=O)c1ccco1)c1ccc(C(=O)OC)cc1", "Torsin-1A (Homo sapiens) (UniProt O14656)", -0.708],
  ["CC(C)c1ccc(NN2C(C(O)C(c3ccccc3)c3ccccc3)C=CC3C(=O)N(c4ccccc4)C(=O)C32)cc1 (configuration not stated)", "Torsin-1A (Homo sapiens) (UniProt O14656)", 0.792]
]}

---

experiment: basal MM1S mitochondrial membrane potential changes, profiling panel, cell-based, JC-1 fluorescence, 24 h, 100 nL compound (AID 1170); conditions: higher = more signal; note: test concentration not given here

{"columns": ["COMPOUND", "z-score"],
 "data": [
  ["CN1C(=O)C2C=CC(C(O)Cc3ccccc3)N(Nc3ccccc3)C2C1=O (stereo not drawn)", 0.155],
  ["COC(=O)[C@@]1(Cc2ccc(OC)cc2)[C@H]2c3cc(C(=O)N4CCCC4)n(Cc4ccc(OC)c(OC)c4)c3C[C@H]2CN1C(=O)c1ccccc1", -0.602],
  ["COc1cc(OC)c(C(O)C2C=CC3C(=O)NC(=O)C3N2Nc2ccc(Cl)cc2Cl)cc1Br (stereo not drawn)", -1.27],
  ["O=C1c2ccccc2[C@](Cc2ccccc2I)(C(=O)NC2CC2)[C@H](c2ccc(CO)cc2)N1Cc1ccccc1", 0.00466],
  ["CN(C)CCCCCCNC(=O)[C@@H]1C[C@@H]2C(=O)N[C@@H](CCCCN)C(=O)N2[C@@H]1c1cccc(OCCO)c1", 0.135],
  ["CCCCC(O)C1C=CC2C(=O)N(c3ccccc3)C(=O)C2N1Nc1ccccc1F (stereo not drawn)", -0.444],
  ["[N-]=[N+]=Nc1ccccc1C[C@]1(C(N)=O)N=C(c2ccc(OCCCO)cc2)O[C@H]1c1ccccc1", -0.0874],
  ["CC(C)[C@@H](CO)NC(=O)[C@H]1[C@@H](c2ccccc2)N(c2ccccc2)O[C@@H]1C", -1.11]
]}

---

assay: binders of probe aFSTL3 on microarray, primary screen, stem cell growth factor project, biochemical, small-molecule microarray, fluorescence 635/667 (AID 1064); settings: higher = more signal;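 note: measures binding of the biotinylated anti-FSTL3 antibody to printed compounds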
Note to self: values exactly at 0.5 are rule met. So composite z-score at or above 0.5 is rule met, below is rule not met.

{"columns": ["MOLECULE", "CAT"],
 "data": [
  ["COCCOC(=O)N1C(=O)[C@@]2(c3cc(C#CCCO)ccc31)[C@H](C(=O)Nc1nc3ccccc3s1)[C@H]1C(=O)O[C@H](c3ccccc3)[C@H](c3ccccc3)N1[C@@H]2c1ccc(OCCO)cc1", "rule not met"],
  ["COCCCN1C(=O)[C@@]2(c3ccc([N+](=O)[O-])cc3)CC(=O)N(C3CCCCC3)[C@@H]2c2ccc(CO)cc21", "rule not met"],
  ["CN1C(=O)C2C=CC(C(O)c3ccccc3)N(Nc3ccccc3)C2C1=O (stereo not given)", "rule met"],
  ["C=CC[C@@]1(C(N)=O)N=C(c2ccc(OCCCO)cc2)O[C@@H]1c1ccccc1CN=[N+]=[N-]", "rule met"],
  ["CC(=O)NCCCC[C@@H]1NC(=O)[C@@H]2C[C@H](C(=O)NCCCCN(C)C)[C@H](c3cccc(OCCO)c3)N2C1=O", "rule not met"],
  ["CN1C(=O)C2C=CC(C(O)C3=C[C@H]4C[C@@H](C3)C4(C)C)N(Nc3ccccc3)C2C1=O (stereo not given in full)", "rule met"],
  ["CCCCC=C[C@@H](NC(=O)Oc1cccc(C(F)(F)F)c1)c1ccccc1", "rule met"],
  ["COc1ccc([Si](C)(C)[C@@H]2[C@@H](CCO)O[C@]3(C(=O)N(Cc4ccc(N5C(=O)COc6ccccc65)cc4)c4ccccc43)[C@H]2C)cc1", "rule not met"],
  ["CCOC(=O)C[C@H]1[C@H](OC(=O)Cc2ccc3c(c2)OCO3)[C@@H](NC(=O)c2ccc3ccccc3c2)c2cc(OCCCO)ccc2N1C(=O)c1ccccc1", "rule not met"],
  ["COc1ccc(C(=O)Nc2ccc(CN3C(=O)[C@@]4(O[C@@H](CCO)[C@H]([Si](C)(C)c5ccc(OC)cc5)[C@H]4C)c4ccccc43)cc2)cc1", "rule not met"],
  ["Cc1ccc(S[C@]2(C(=O)NC3CC3)CC(=O)N(C3Cc4ccccc4C3)[C@@H]2c2ccc(CO)cc2)cc1", "rule met"],
  ["CN1C(=O)C2C=CC(C(O)c3ccc(-c4ccccc4)s3)N(N(c3ccccc3)c3ccccc3)C2C1=O (stereo not given)", "rule not met"],
  ["C=CCNC(=O)[C@H]1[C@@H]2C(=O)O[C@@H](c3ccccc3)[C@@H](c3ccccc3)N2[C@@H](c2ccc(OCCO)cc2)[C@]12C(=O)N(C(=O)OCCOC)c1ccccc12", "rule not met"],
  ["O=C1O[C@H](c2ccccc2)[C@H](c2ccccc2)N2[C@H]1[C@@H](C(=O)O)[C@]1(C(=O)Nc3ccc(C#CCCO)cc31)[C@H]2c1ccc(O)cc1", "rule met"]
]}

---

z-score values for the compounds below.
test: CREB reporter modulators without forskolin, primary screen, cell-based, PC12, CRE-LacZ reporter, unstimulated (AID 1145); settings: no forskolin, luminescence, 4.5 h, higher = more signal, called active from +8 up or from −8 down
RECORDED_METRIC: z-score

{"columns": ["COMPOUND", "RECORDED_METRIC", "NUMBER"],
 "data": [
  ["N#Cc1ccc(NN2C(C(O)c3c(F)cccc3Cl)C=CC3C(=O)N(c4ccccc4)C(=O)C32)cc1 (stereo not drawn)", "z-score", 0.622],
  ["COC(=O)[C@@]1(Cc2ccc(OC)cc2)[C@H]2c3cc(C(=O)N4CCCC4)n(Cc4ccccc4)c3C[C@H]2CN1C(=O)c1ccccc1", "z-score", 0.194],
  ["COc1cc2c(cc1OC)CN(C(=O)[C@@H]1[C@H]3C(=O)O[C@H](c4ccccc4)[C@H](c4ccccc4)N3[C@H](c3ccc(O)cc3)[C@@]13C(=O)Nc1ccc(C#CC4(O)CCCCCC4)cc13)CC2", "z-score", -0.168]
]}
